These data points were gathered from ChEMBL document CHEMBL3992512.

Test: Solubility in fasted state simulated intestinal fluid
Type: physicochemical
Overview of reported solubility across a group of compounds:
Provide only the numeric value, understood in µM.

CN1C(=O)[C@@H]2CN(S(=O)(=O)c3ccc4c(c3)OCO4)C[C@@H]2c2cnccc21
296

What does the data say about its solubility? Entry: CN1C(=O)[C@@H]2CN(S(=O)(=O)c3ccc4c(c3)OCO4)C[C@@H]2c2ncccc21 28

###

System: human MDR1
Test: Efflux ratio of passive apparent permeability in MDCK cells harboring human MDR1
Type: ADME, cell-based, Canis lupus familiaris
Settings: dog
Hi, to clarify the labels: MET covers efflux ratio from 3 upward, NOT MET covers anything below 3.

Check out these entries, answers already filled in.
CN1C(=O)[C@@H]2CN(S(=O)(=O)c3ccc4occc4c3)C[C@@H]2c2cnccc21
NOT MET
CN1C(=O)[C@@H]2CN(S(=O)(=O)c3ccc4c(c3)CCO4)C[C@@H]2c2cnccc21
MET
C[C@H]1[C@H]2C(=O)N(C)c3ccncc3[C@H]2CN1S(=O)(=O)c1ccc2c(c1)OCO2
NOT MET
CN1C(=O)[C@@H]2CN(S(=O)(=O)c3ccc4c(c3)OCO4)C[C@@H]2c2cc(O)ccc21
MET
CN1C(=O)[C@@H]2CN(S(=O)(=O)c3ccc4scnc4c3)C[C@@H]2c2cnccc21
MET
CN1C(=O)[C@@H]2CN(S(=O)(=O)c3ccc4c(c3)OCO4)C[C@@H]2c2cnccc21
NOT MET
CN1C(=O)[C@@H]2CN(S(=O)(=O)c3ccc4c(c3)OCO4)C[C@@H]2c2ncccc21
NOT MET
CN1C(=O)[C@@H]2CN(S(=O)(=O)c3ccc(F)c(Cl)c3)C[C@@H]2c2cnccc21
NOT MET
CN1C(=O)[C@@H]2CN(S(=O)(=O)c3ccn4ccnc4c3)C[C@@H]2c2cnccc21
MET
CN1C(=O)[C@@H]2CN(S(=O)(=O)c3ccc4ocnc4c3)C[C@@H]2c2cnccc21
MET

# bool: efflux ratio of CN1C(=O)[C@H]2CN(S(=O)(=O)c3ccc4c(c3)OCO4)C[C@H]2c2cnccc21 >= 3 NOT MET

# bool: efflux ratio of CN1C(=O)[C@@H]2CN(S(=O)(=O)c3ccc4c(c3)OCC4)C[C@@H]2c2cnccc21 >= 3 NOT MET

# bool: efflux ratio of O=S(=O)(c1ccc2c(c1)OCO2)N1C[C@@H]2c3ccccc3-n3ccnc3[C@@H]2C1 >= 3 NOT MET
